- Test system: Ba/F3 cells KRAS G12D
- EXPERIMENTAL PROTOCOL: Ba/F3 proliferation assay (KRAS G12D)
- Assay type: cell-based
- CONDITIONS USED: Mus musculus, BaF3, 72 h, AlamarBlue viability
RECORDED ENDPOINT: pIC50
Numbers only, as −log10 of the molar value.

Worked cases, answers included:
C[C@H](Oc1nc(-c2noc3c2CCC[C@@]32CCCc3sc(N)c(C#N)c32)nc2c1CCC21CCOC1)[C@@H]1CCCN1C (stereo partly drawn) [II-18]: 7.70
C[C@H](Oc1nc(-c2onc3c2CCC[C@@]32CCCc3sc(N)c(C#N)c32)nc2c1n(C)c(=O)n2[C@H]1CC2CCC1O2)[C@@H]1CCCN1C (stereo partly drawn) [I-17]: 7.33
C[C@H](Oc1nc(-c2onc3c2CCC[C@@]32CCCc3sc(N)c(C#N)c32)nc2c1n(C)c(=O)n2[C@@H]1CCOC1)[C@@H]1[C@H](F)CCN1C [I-4]: 6.84
C[C@H](Oc1nc(-c2onc3c2CCC[C@@]32CCCc3sc(N)c(C#N)c32)nc2c1n(C)c(=O)n2[C@@H]1CCOC1)[C@@H]1[C@@H](F)CCN1C [I-5]: 7.17
CO[C@H]1CCN(C)[C@@H]1[C@H](C)Oc1nc(-c2onc3c2CCC[C@@]32CCCc3sc(N)c(C#N)c32)nc2c1n(C)c(=O)n2[C@@H]1CCOC1 [I-23]: 8.00

Field: next compound
[Q] In one line, give reported pIC50 of the entry CC(C)n1c(=O)n([C@@H]2CCOC2)c2nc(-c3onc4c3CCC[C@@]43CCCc4sc(N)c(C#N)c43)nc(O[C@@H](C)[C@@H]3CCCN3C)c21 [I-32] .
[A] 7.24

###

- TEST TARGET: KRAS (WT)::CRAF protein::protein interaction (Homo sapiens (Human), UniProt P01116)
- Sequence (P01116 other isoform, or with tags, fused parts or gaps): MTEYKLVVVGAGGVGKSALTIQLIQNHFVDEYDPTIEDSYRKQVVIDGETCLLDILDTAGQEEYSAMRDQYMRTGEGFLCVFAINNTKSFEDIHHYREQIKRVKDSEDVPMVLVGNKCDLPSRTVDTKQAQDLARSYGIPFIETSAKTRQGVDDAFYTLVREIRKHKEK
- EXPERIMENTAL PROTOCOL: KRAS TR-FRET assay (KRAS WT::CRAF, GTP)
Field: pIC50. Provide a value for each of the compounds that follow.
Answers are plain numbers, as −log10 of the molar value.

C[C@H](Oc1nc(-c2onc3c2CCC[C@@]32CCCc3sc(N)c(C#N)c32)nc2c1n(C)c(=O)n2[C@@H]1CCOC1)[C@@H]1[C@@H](F)CCN1C: 6.18

Below are 4 compounds. Give each one its pIC50.
1. C[C@H](Oc1nc(-c2onc3c2CCC[C@@]32CCCc3sc(N)c(C#N)c32)nc2c1n(C)c(=O)n2C1CCOCC1)[C@@H]1CCCN1C
2. C[C@H](Oc1nc(-c2onc3c2CCC[C@@]32CCCc3sc(N)c(C#N)c32)nc2c1n(C)c(=O)n2[C@H]1CCCOC1)[C@@H]1CCCN1C
3. C[C@H](Oc1nc(-c2onc3c2CCC[C@@]32CCCc3sc(N)c(C#N)c32)nc2c1n(C)c(=O)n2[C@@H]1CCOC1)[C@@H]1CC[C@H](C)N1C
4. C[C@H](Oc1nc(-c2onc3c2CCC[C@@]32CCCc3sc(N)c(C#N)c32)nc2c1cnn2[C@@H]1CCOC1)[C@@H]1CCCN1C

[A]
[6.46, 6.47, 7.30, 6.49]

For every record below, what is its pIC50?
1. CO[C@@H]1C[C@@H]([C@H](C)Oc2nc(-c3onc4c3CCC[C@@]43CCCc4sc(N)c(C#N)c43)nc3c2n(C)c(=O)n3[C@@H]2CCOC2)N(C)C1
2. COCCn1c(=O)n([C@@H]2CCOC2)c2nc(-c3onc4c3CCC[C@@]43CCCc4sc(N)c(C#N)c43)nc(O[C@@H](C)[C@@H]3CCCN3C)c21
3. CC(C)n1c(=O)n([C@@H]2CCOC2)c2nc(-c3onc4c3CCC[C@@]43CCCc4sc(N)c(C#N)c43)nc(O[C@@H](C)[C@@H]3CCCN3C)c21
4. C[C@H](Oc1nc(-c2onc3c2CCC[C@@]32CCCc3sc(N)c(C#N)c32)nc2c1n(C)c(=O)n2[C@@H]1CCOC1)[C@@H]1C[C@@H]2C[C@@H]2N1C
5. CCn1c(=O)n([C@@H]2CCOC2)c2nc(-c3onc4c3CCC[C@@]43CCCc4sc(N)c(C#N)c43)nc(O[C@@H](C)[C@@H]3CCCN3C)c21
6. C[C@H](Oc1nc(-c2onc3c2CCC[C@@]32CCCc3sc(N)c(C#N)c32)nc2c1n(C)c(=O)n2[C@@H]1CCOC1)[C@@H]1CCCN1C
7. CO[C@H]1C[C@@H]([C@H](C)Oc2nc(-c3onc4c3CCC[C@@]43CCCc4sc(N)c(C#N)c43)nc3c2n(C)c(=O)n3[C@@H]2CCOC2)N(C)C1
8. CO[C@H]1CCN(C)[C@@H]1[C@H](C)Oc1nc(-c2noc3c2CCC[C@@]32CCCc3sc(N)c(C#N)c32)nc2c1n(C)c(=O)n2[C@@H]1CCOC1

[A]
1: 7.00; 2: 6.80; 3: 6.22; 4: 6.27; 5: 7.02; 6: 7.30; 7: 6.37; 8: 7.27

[Q] Recall and state the measured pIC50 for C[C@H](Oc1nc(-c2onc3c2CCC[C@@]32CCCc3sc(N)c(C#N)c32)nc2c1n(C)c(=O)n2[C@@H]1CCOC1)C12CCCN1CCC2 .
[A] 7.28

###

- TEST TARGET: KRAS (G12D)::SOS1 protein-protein interaction (Homo sapiens (Human), UniProt P01116, G12D)
- Sequence (P01116 other isoform, or with tags, fused parts or gaps G12D): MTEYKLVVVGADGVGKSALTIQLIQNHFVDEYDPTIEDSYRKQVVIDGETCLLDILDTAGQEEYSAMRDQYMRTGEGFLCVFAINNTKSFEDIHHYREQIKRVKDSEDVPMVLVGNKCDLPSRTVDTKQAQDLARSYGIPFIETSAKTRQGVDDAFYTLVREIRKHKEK
- EXPERIMENTAL PROTOCOL: KRAS::SOS1 AlphaScreen binding assay (KRAS G12D)
- CONDITIONS USED: GDP
RECORDED ENDPOINT: pIC50
One number for each entry, as −log10 of the molar value.

A selection of reference data follows.
CO[C@@H]1C[C@@H]([C@H](C)Oc2nc(-c3onc4c3CCC[C@@]43CCCc4sc(N)c(C#N)c43)nc3c2n(C)c(=O)n3[C@@H]2CCOC2)N(C)C1 [I-3]: 9.00
C[C@H](Oc1nc(-c2onc3c2CCC[C@@]32CCCc3sc(N)c(C#N)c32)nc2c1COC[C@]21CCOC1)[C@@H]1CCCN1C [I-54]: 9.00

[Q] Answer with the recorded pIC50 of C[C@H](Oc1nc(-c2onc3c2CCC[C@@]32CCCc3sc(N)c(C#N)c32)nc2c1ncn2[C@@H]1CCOC1)[C@@H]1CCCN1C [I-38] only.
[A] 8.70

###

Exercise: state measured IC50 for each of the compounds provided.
- TEST TARGET: KRAS (G12D)::SOS1 protein-protein interaction (Homo sapiens (Human), UniProt P01116, G12D)
- EXPERIMENTAL PROTOCOL: KRAS::SOS1 AlphaScreen binding assay (KRAS G12D)
- CONDITIONS USED: GDP
Kindly report the value followed by its unit.

C[C@H](Oc1nc(-c2onc3c2CCC[C@@]32CCCc3sc(N)c(C#N)c32)nc2c1CN(C1COC1)C[C@]21CCOC1)[C@@H]1CC[C@H](C)N1C: 1 nM
C[C@H](Oc1nc(-c2noc3c2CCC[C@@]32CCCc3sc(N)c(C#N)c32)nc2c1COC[C@@]21CCOC1)[C@@H]1CCCN1C: 2 nM
CCn1c(=O)n([C@@H]2CCOC2)c2nc(-c3onc4c3CCC[C@@]43CCCc4sc(N)c(C#N)c43)nc(O[C@@H](C)[C@@H]3CCCN3C)c21: 1 nM
CCn1c(=O)n([C@@H]2CCCOC2)c2nc(-c3onc4c3CCC[C@@]43CCCc4sc(N)c(C#N)c43)nc(O[C@@H](C)C34CCCN3CCC4)c21: 2 nM
C[C@H](Oc1nc(-c2onc3c2CCC[C@@]32CCCc3sc(N)c(C#N)c32)nc2c1n(C)c(=O)n2[C@@]12COC[C@@H]1C2)[C@@H]1CC[C@H](C)N1C: 1 nM

Would you be so kind as to report IC50 for each listed record?
1. Cc1cc2c(O[C@@H](C)[C@@H]3CCCN3C)nc(-c3onc4c3CCC[C@@]43CCCc4sc(N)c(C#N)c43)nc2n1[C@@H]1CCOC1
2. C[C@H](Oc1nc(-c2onc3c2CCC[C@@]32CCCc3sc(N)c(C#N)c32)nc2c1n(C)c(=O)n2[C@H]1CO[C@@H](C)C1)[C@@H]1CCCN1C
3. CO[C@H]1CCN(C)[C@@H]1[C@H](C)Oc1nc(-c2onc3c2CCC[C@@]32CCCc3sc(N)c(C#N)c32)nc2c1n(C)c(=O)n2[C@H]1CO[C@@H](C)C1
4. C[C@H](Oc1nc(-c2onc3c2CCC[C@@]32CCCc3sc(N)c(C#N)c32)nc2c1n(C)c(=O)n2[C@@H]1CCOC1)[C@@H]1C[C@H](F)CN1C
5. CCn1c(=O)n([C@@H]2CCCOC2)c2nc(-c3onc4c3CCC[C@@]43CCCc4sc(N)c(C#N)c43)nc(OC[C@@]34CCCN3C[C@H](F)C4)c21

[A]
1. 2 nM
2. 1 nM
3. 2 nM
4. 2 nM
5. 126 nM

Each compound below has a recorded value; state its IC50.
1. CO[C@@H]1C[C@@H]([C@H](C)Oc2nc(-c3onc4c3CCC[C@@]43CCCc4sc(N)c(C#N)c43)nc3c2n(C)c(=O)n3[C@@]23COC[C@@H]2C3)N(C)C1
2. C[C@H](Oc1nc(-c2onc3c2CCC[C@@]32CCCc3sc(N)c(C#N)c32)nc2c1n(C)c(=O)n2[C@@H]1CCOC1)[C@@H]1C[C@@H]2C[C@@H]2N1C

[A]
1 nM
4 nM
